Test system: UACC-62
Experiment: NCI tumour cell line growth inhibition, 48 h
Calls of active or inactive are those of the source. Rule as the data show it: active = GI50 up to about 1.1 µM and inactive = higher.
MEASURED_METRIC: GI50

These recorded examples may help you get a feel for the data.
- CC1(C)CCCC2CC2CCC(C)(C)C1=O (stereo unspecified): > 100 µM (inactive)
- COc1ccccc1N1C(=O)CSC1c1cccc(Oc2ccccc2)c1 (stereo unspecified): 14.9 µM (inactive)
- O=C(N/C(=C\c1ccccc1Cl)c1nc2ccccc2[nH]1)c1ccccc1: 21.4 µM (inactive)
- N=c1n(CC(=O)NC23CC4CC(CC(C4)C2)C3)c2ccccc2n1CC(=O)NC12CC3CC(CC(C3)C1)C2: 1.96 µM (inactive)
- CC(=O)OC1(C)C(=O)OC1(C)C(C)=O (stereo unspecified): > 100 µM (inactive)
- O=C(O)c1nnsc1COCc1ccccc1: > 100 µM (inactive)

# GI50 lookup, item CNc1nncc2[nH]cnc12 > 100 µM (inactive)

What value of GI50 has been recorded for this entry: NC(=O)Nc1n[nH]c(-c2ccccc2)n1 > 100 µM (inactive)

If you can, please state the reported GI50 value of CCOC(=O)C(C(=S)Nc1ccccc1)c1nn2c(=O)cc(C)nc2s1 (stereo unspecified) . 23.7 µM (inactive)

Name the reported GI50 value associated with the compound CC1=C(/C=C/C(C)=C/C=C/C(C)=C/C=C/C=C(C)/C=C/C=C(C)/C=C/C=C(C)/C=C/C=C(\C)C(=O)O)C(C)(C)CCC1 > 100 µM (inactive)

# input compound: COc1ccc(C(=C2C(=O)OC(=O)C2=C(C)C)c2ccc(OC)cc2)cc1 ; wanted: its GI50 > 100 µM (inactive)
